Experiment: Solubility / formulation for intravenous administration
Assay type: physicochemical
Conditions: 10% DMSO, aqueous with cosolvent or surfactant or cyclodextrin; read-out: soluble in 10% DMSO to
REPORTED PROPERTY: solubility (µg/mL)
Report the value in µg/mL with no unit label.

Incoming: Request the reported solubility associated with COc1ccc(C2CNC(=O)C2)cc1OC1CCCC1 (stereo not shown)
Outgoing: 1000

---

System: TNF production from whole blood stimulated with LPS
Assay: Whole blood assay: LPS-induced TNF-α production (L929 fibrosarcoma cell bioassay)
Type: cell-based, horse
Conditions: Equus caballus, L929; equine whole blood diluted 1:1 with RPMI 1640, LPS, 18 hours at 37° C.; read-out: IC50, inhibition of TNFa production
REPORTED PROPERTY: IC50
Put down the number, then write its unit next to it.

Incoming: Request the reported IC50 associated with COc1ccc(C2CNC(=O)C2)cc1OC1CCCC1 (stereo not shown) [rolipram]
Outgoing: 653 nM

---

Test: Solubility / formulation for intravenous administration
Type: physicochemical
Conditions: water; read-out: water soluble to
REPORTED PROPERTY: solubility (µg/mL)
Report the value in µg/mL with no unit label.

Incoming: Request the reported solubility associated with COc1ccc(C2CNC(=O)C2)cc1OC1CCCC1 (stereo not shown) [rolipram]
Outgoing: 200

Source: patent US11123349B2
